B1: NELF-E aptamer (parent)
chain: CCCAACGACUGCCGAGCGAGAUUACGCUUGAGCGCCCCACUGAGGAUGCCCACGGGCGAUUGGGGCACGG

Variants of: B1
Measurement Protocol: HiTS-RAP
Assay Conditions: with NELF-E (Drosophila)
Endpoint Name: Kd (nM)
Give your result in nM as a bare value.

Below: 3 variants and their reported Kd.
# Seq, Units Symbol, Kd
data = [
    ("CCCAACUACUGCCGAGCGAGAUUACGCUUGAGCGCCCCACUGAGGAUGCCCACGUGCGAUUGGGGCACGG", "nM", 6.97),
    ("CCCAACGACGGCCGAGCGAGAUUACGCUUGAGCGUCCCACUGAGGAUGCCCACGGGCGAUUGGGGCACGG", "nM", 16.3),
    ("CCCAACUACUGCCGAGCGAGAUUACGCUUGAGCGCCACACUGAGGAUGCCCACGGGCGAUUGGGGCACGG", "nM", 20.8),
]

Next:
Q: Please give the documented Kd of CCCAACGACUGCCGAUCGAGAUUACGCUUGAGCGCCCCACUGAGGAUGCCCACGGGCGAUUGGGUCACGG
Ans: 7.8
